# Tested on: TRE dependent transcription
# assay_procedure: TRE (AP-1) luciferase reporter in stably transfected A549 cells
# Assay type: cell-based, human
# assay_setup: Homo sapiens, read-out: EC50 for inhibition of TRE dependent transcription
measured_property: EC50 (µM)

- Oc1ccc(/C=C/c2cc(O)cc(O)c2)cc1 [Resveratrol, 3,5,4′-trihydroxystilbene]: 7
